Ref: ChEMBL document CHEMBL1131807

- System: Enterococcus faecium
- test_name: Antibacterial activity against vancomycin, teicoplanin and erythromycin resistant Enterococcus faecium 02D31P2 strain
- Assay type: functional
Each entry below lists one item and its recorded MIC value.

# item_smiles, MIC, µg/mL
rows = [
    ("CO[C@@H]1[C@@H](OC(=O)c2ccc(C)[nH]2)[C@@H](O)[C@H](Oc2ccc3c(O)c(/C(C)=N/OCCN4CCOCC4)c(=O)oc3c2C)OC1(C)C", 10),
    ("CO/N=C(\\C)c1c(O)oc2c(C)c(O[C@@H]3OC(C)(C)[C@H](OC)[C@@H](OC(=O)c4ccc(C)[nH]4)[C@H]3O)ccc2c1=O", 10),
    ("CO[C@@H]1[C@@H](OC(=O)c2ccc(C)[nH]2)[C@@H](O)[C@H](Oc2ccc3c(O)c(C(=O)OCC(C)C)c(=O)oc3c2C)OC1(C)C", 5),
]

###

- Tested on: Staphylococcus aureus
- test_name: Antibacterial activity against Staphylococcus aureus novobiocin resistant strain 011HT1
- Assay type: functional
Each entry below lists one item and its recorded MIC value.

# molecule, MIC, µg/mL
rows = [
    ("CO/N=C(\\C)c1c(O)oc2c(C)c(O[C@@H]3OC(C)(C)[C@H](OC)[C@@H](OC(=O)c4ccc(C)[nH]4)[C@H]3O)ccc2c1=O", 40),
    ("CO[C@@H]1[C@@H](OC(=O)c2ccc(C)[nH]2)[C@@H](O)[C@H](Oc2ccc3c(O)c(C(=O)OCC(C)C)c(=O)oc3c2C)OC1(C)C", 10),
    ("CO[C@@H]1[C@@H](OC(=O)c2ccc(C)[nH]2)[C@@H](O)[C@H](Oc2ccc3c(O)c(C(N)=O)c(=O)oc3c2C)OC1(C)C", 2.5),
    ("COC1[C@@H](OC(N)=O)[C@@H](O)[C@H](Oc2ccc3c(O)c(NC(=O)c4ccc(O)c(CC=C(C)C)c4)c(=O)oc3c2C)OC1(C)C (single isomer, unassigned)", 20),
    ("CO[C@@H]1[C@@H](OC(=O)c2ccc(C)[nH]2)[C@@H](O)[C@H](Oc2ccc3c(O)c(C(=O)NCCN(C)C)c(=O)oc3c2C)OC1(C)C", 20),
    ("CO[C@@H]1[C@@H](OC(=O)c2ccc(C)[nH]2)[C@@H](O)[C@H](Oc2ccc3c(O)c(/C(C)=N/OCCN4CCOCC4)c(=O)oc3c2C)OC1(C)C", 40),
    ("CO[C@@H]1[C@@H](OC(=O)c2ccc(C)[nH]2)[C@@H](O)[C@H](Oc2ccc3c(O)c(C(C)=O)c(=O)oc3c2C)OC1(C)C", 5),
]
